Biological target: recombinant human nicotinic acid receptor (NAR) (Homo sapiens)
Assay: Nicotinic Acid Receptor Assay: inhibition of forskolin-stimulated cAMP accumulation in CHO cells (MesoScale Discovery cAMP kit)
Assay type: cell-based
Settings: CHO cells expressing recombinant human NAR; forskolin-stimulated cAMP; read-out: NA EC50 camp
pEC50: −log10 of the molar value.
readout-kind: pEC50

Please review the following examples before continuing.
{"columns": ["smiles-structure", "obs-value"],
 "data": [
  ["CCOC(=O)NOc1nc2oc(=O)cc(CCC(C)C)c2c(=O)[nH]1", "< 6.00"],
  ["CCc1cc(=O)oc2nc(OCC[Si](C)(C)C)[nH]c(=O)c12", "6.00 to 7.00"],
  ["Cn1c(=O)[nH]c2oc(=O)cc(CCC3CC3)c2c1=O", "6.00 to 7.00"]
]}

We now examine a further compound.
Request: // fetch pEC50 given entry `O=c1[nH]c(=O)c2c(CCc3cccs3)cc(=O)oc2[nH]1`
Response: 7.00 to 12.00

----------
Biological target: recombinant human nicotinic acid receptor (NAR) (Homo sapiens)
Assay: Nicotinic Acid Receptor Assay: inhibition of forskolin-stimulated cAMP accumulation in CHO cells (MesoScale Discovery cAMP kit)
Assay type: cell-based
Conditions: inhibition of forskolin-stimulated cAMP accumulation, CHO cells expressing recombinant human NAR; read-out: NA EC50 camp
readout-kind: pEC50
Answers are plain numbers, as −log10 of the molar value.

Guide cases for pEC50, answers given:
{"columns": ["compound", "readout-kind", "obs-value"],
 "data": [
  ["CCc1cc(=O)oc2nc(OCC#CC(C)OC)[nH]c(=O)c12 (stereo not shown) [Compound 723]", "pEC50", 6.53],
  ["CCc1cc(=O)oc2nc(OCC#CCCOC)[nH]c(=O)c12 [Compound 726]", "pEC50", 6.66],
  ["CCCCc1cc(=O)oc2c1c(=O)[nH]c(=O)n2CF [Compound 813]", "pEC50", 6.59]
]}

Each of the following entries comes with a recorded value; kindly state pEC50 for each.
1. CCn1c(=O)[nH]c2oc(=O)cc(CCC3CCC3)c2c1=O [Compound 783]
2. CCC#CC(C)Oc1nc2oc(=O)cc(CC)c2c(=O)[nH]1 (stereo not shown) [Compound 730]
3. O=c1cc(CCCC2CC2)c2c(=O)n(CF)c(=O)[nH]c2o1 [Compound 802]

Response:
1. 7.19
2. 6.81
3. 7.92

----------
Molecular target: recombinant human nicotinic acid receptor (NAR) (Homo sapiens, UniProt Q8TDS4)
Sequence (Q8TDS4 whole entry): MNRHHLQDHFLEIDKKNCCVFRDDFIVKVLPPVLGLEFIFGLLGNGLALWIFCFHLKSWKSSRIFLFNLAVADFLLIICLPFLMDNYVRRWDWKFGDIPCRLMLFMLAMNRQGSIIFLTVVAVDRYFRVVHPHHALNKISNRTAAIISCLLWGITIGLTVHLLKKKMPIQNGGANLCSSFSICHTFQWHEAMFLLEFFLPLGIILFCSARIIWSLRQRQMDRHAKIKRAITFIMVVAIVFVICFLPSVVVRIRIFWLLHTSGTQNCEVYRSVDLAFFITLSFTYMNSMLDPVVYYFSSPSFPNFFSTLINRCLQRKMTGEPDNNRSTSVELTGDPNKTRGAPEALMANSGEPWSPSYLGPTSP
Assay: Nicotinic Acid Receptor Assay: inhibition of forskolin-stimulated cAMP accumulation in CHO cells (MesoScale Discovery cAMP kit)
Format: cell-based
Conditions: CHO cells expressing recombinant human NAR; forskolin-stimulated cAMP; read-out: NA EC50 camp
pEC50: −log10 of the molar value.
For each record, write down the corresponding pEC50.

Consider the reported pEC50 for these compounds:
{"columns": ["smiles-structure", "pEC50"],
 "data": [
  ["CCc1cc(=O)oc2nc(OCc3ccccc3-c3cccc(Cl)c3)[nH]c(=O)c12", "< 6.00"],
  ["O=c1cc(CCCc2cccs2)c2c(=O)[nH]c(=O)n(CC3CC3)c2o1", "< 6.00"],
  ["CCc1cc(=O)oc2nc(OCc3c(-c4c(Cl)cccc4Cl)noc3C)[nH]c(=O)c12", "6.00 to 7.00"]
]}

Please turn your attention to the following entry.
Request: Determine from records and report pEC50 for `O=c1cc(CCCc2cccs2)c2c(=O)n(C3CCC3)c(=O)[nH]c2o1`
Response: 6.00 to 7.00
